Target: wild type PKR (Homo sapiens)
Sequence (P30613 whole entry): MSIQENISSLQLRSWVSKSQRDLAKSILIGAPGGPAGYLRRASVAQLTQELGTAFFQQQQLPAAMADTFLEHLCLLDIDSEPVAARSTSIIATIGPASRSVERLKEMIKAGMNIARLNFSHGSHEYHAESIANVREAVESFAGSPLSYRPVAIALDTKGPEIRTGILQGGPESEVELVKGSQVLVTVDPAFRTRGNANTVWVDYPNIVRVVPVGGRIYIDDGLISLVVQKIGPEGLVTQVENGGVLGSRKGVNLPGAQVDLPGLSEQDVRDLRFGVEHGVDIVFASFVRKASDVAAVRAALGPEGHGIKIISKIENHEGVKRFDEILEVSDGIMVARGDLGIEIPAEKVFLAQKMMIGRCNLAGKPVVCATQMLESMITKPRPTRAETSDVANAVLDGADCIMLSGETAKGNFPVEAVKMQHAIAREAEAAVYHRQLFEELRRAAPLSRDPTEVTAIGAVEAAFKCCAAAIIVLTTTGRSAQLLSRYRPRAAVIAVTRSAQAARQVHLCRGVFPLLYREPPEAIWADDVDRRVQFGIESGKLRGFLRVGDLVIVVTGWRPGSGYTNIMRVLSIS
Assay: PKR mutant assay (AC50), wild type PKR
Type: biochemical
Conditions: wild type PKR enzyme; read-out: PKR WT AC50
measurement.kind: AC50

compound | subject.of.test | AC50
Cn1c2nc(Cc3cc[nH]n3)sc2c2cnn(Cc3csc(F)n3)c(=O)c21 | wild type PKR (Homo sapiens) | < 300 nM
Cn1c2nc(Cc3cc[nH]n3)sc2c2cnn(Cc3ccncc3)c(=O)c21 | wild type PKR (Homo sapiens) | < 300 nM
Cc1ccc(Cn2ncc3c4sc(Cc5cc[nH]n5)nc4n(C)c3c2=O)nc1Cl | wild type PKR (Homo sapiens) | < 300 nM
CCOC(c1cscn1)c1nc2c(s1)c1cnn(Cc3c[nH]nn3)c(=O)c1n2C (centres unmarked) | wild type PKR (Homo sapiens) | > 800 nM

Attention now shifts to the item below.
Record Cn1c2nc(Cc3cc[nH]n3)sc2c2cnn(Cc3ncns3)c(=O)c21 : what is its AC50 with wild type PKR (Homo sapiens)?
< 300 nM

###

Recorded measurements of AC50, one per entry
Biological target: wild type PKR (Homo sapiens)
Assay: PKR mutant assay (AC50), wild type PKR
Assay type: biochemical
Settings: wild type PKR enzyme; read-out: PKR WT AC50

smiles.string | AC50
Cn1c2nc(Cn3cc[nH]c3=O)sc2c2cnn(Cc3cc[nH]n3)c(=O)c21 | < 300 nM

I am curious: what AC50 value has been reported for Cn1c2nc(Cc3nc(N)sc3F)sc2c2cnn(Cc3c[nH]nn3)c(=O)c21 ?
< 300 nM

# get_value(readout='AC50', item= Cn1c2nc(Cc3cc[nH]n3)sc2c2cnn(Cc3cnc(C(N)=O)o3)c(=O)c21 )
301 to 800 nM

Please give the measured AC50 for this compound: Cn1c2nc(Cc3cc[nH]n3)sc2c2cnn(Cc3n[nH]cc3OC(F)(F)F)c(=O)c21
301 to 800 nM

Which AC50 value belongs to Cn1c2nc(Cc3n[nH]cc3F)sc2c2cnn(Cc3c[nH]nn3)c(=O)c21 ?
< 300 nM

AC50 lookup needed for Cn1c2nc(Cc3ccccn3)sc2c2cnn(Cc3cccnc3)c(=O)c21 , thanks.
301 to 800 nM

Please report the recorded AC50 for Cn1ccc(Cn2ncc3c4sc(Cc5n[nH]cc5F)nc4n(C)c3c2=O)n1 .
< 300 nM

Value lookup for AC50; key = Cn1c2nc(Cc3ncsc3Cl)sc2c2cnn(Cc3cc[nH]n3)c(=O)c21
< 300 nM

###

# AC50 annotations
Molecular target: PKR R510Q (Homo sapiens, UniProt P30613, R510Q)
Sequence (P30613 whole entry R510Q): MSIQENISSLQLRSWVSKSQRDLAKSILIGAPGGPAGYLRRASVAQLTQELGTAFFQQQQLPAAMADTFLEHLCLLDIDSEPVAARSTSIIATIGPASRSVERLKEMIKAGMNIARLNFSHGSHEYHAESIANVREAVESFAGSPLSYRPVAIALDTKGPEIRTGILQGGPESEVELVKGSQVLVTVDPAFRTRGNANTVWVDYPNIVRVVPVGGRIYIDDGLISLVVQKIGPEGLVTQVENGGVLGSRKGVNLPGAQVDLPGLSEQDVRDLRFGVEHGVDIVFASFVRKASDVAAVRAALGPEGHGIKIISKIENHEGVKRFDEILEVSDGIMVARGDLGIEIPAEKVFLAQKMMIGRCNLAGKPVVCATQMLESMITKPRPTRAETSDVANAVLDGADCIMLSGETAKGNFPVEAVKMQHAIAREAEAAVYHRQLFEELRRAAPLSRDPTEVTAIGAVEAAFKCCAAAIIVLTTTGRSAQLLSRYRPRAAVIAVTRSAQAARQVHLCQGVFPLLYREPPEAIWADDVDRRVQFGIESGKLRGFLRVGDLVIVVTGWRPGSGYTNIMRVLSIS
Test: PKR mutant assay (AC50), PKR R510Q
Type: biochemical
Conditions: PKR R510Q mutant enzyme; read-out: PK R510Q AC50

Consider the reported AC50 for these compounds:
smiles.string | AC50
Cn1c2nc(Cc3c[nH]nn3)sc2c2cnn(Cc3c[nH]nn3)c(=O)c21 | < 300 nM
COc1ccc(Cn2ncc3c4sc(Cc5cc[nH]n5)nc4n(C)c3c2=O)nc1N | < 300 nM
Cn1cc(C(F)(F)F)c(Cn2ncc3c4sc(Cc5cc[nH]n5)nc4n(C)c3c2=O)n1 | < 300 nM

For Cn1c2nc(Cc3n[nH]cc3F)sc2c2cnn(Cc3n[nH]cc3N)c(=O)c21 , what is its reported AC50?
< 300 nM

Suppose we examine the compound Cn1c2nc(Cn3ccc([N+](=O)[O-])n3)sc2c2cnn(Cc3cc[nH]n3)c(=O)c21 ; what AC50 value has been reported?
< 300 nM
